- system.under.test: ATP-dependent translocase ABCB1 (Homo sapiens)
- Sequence (P08183 whole entry): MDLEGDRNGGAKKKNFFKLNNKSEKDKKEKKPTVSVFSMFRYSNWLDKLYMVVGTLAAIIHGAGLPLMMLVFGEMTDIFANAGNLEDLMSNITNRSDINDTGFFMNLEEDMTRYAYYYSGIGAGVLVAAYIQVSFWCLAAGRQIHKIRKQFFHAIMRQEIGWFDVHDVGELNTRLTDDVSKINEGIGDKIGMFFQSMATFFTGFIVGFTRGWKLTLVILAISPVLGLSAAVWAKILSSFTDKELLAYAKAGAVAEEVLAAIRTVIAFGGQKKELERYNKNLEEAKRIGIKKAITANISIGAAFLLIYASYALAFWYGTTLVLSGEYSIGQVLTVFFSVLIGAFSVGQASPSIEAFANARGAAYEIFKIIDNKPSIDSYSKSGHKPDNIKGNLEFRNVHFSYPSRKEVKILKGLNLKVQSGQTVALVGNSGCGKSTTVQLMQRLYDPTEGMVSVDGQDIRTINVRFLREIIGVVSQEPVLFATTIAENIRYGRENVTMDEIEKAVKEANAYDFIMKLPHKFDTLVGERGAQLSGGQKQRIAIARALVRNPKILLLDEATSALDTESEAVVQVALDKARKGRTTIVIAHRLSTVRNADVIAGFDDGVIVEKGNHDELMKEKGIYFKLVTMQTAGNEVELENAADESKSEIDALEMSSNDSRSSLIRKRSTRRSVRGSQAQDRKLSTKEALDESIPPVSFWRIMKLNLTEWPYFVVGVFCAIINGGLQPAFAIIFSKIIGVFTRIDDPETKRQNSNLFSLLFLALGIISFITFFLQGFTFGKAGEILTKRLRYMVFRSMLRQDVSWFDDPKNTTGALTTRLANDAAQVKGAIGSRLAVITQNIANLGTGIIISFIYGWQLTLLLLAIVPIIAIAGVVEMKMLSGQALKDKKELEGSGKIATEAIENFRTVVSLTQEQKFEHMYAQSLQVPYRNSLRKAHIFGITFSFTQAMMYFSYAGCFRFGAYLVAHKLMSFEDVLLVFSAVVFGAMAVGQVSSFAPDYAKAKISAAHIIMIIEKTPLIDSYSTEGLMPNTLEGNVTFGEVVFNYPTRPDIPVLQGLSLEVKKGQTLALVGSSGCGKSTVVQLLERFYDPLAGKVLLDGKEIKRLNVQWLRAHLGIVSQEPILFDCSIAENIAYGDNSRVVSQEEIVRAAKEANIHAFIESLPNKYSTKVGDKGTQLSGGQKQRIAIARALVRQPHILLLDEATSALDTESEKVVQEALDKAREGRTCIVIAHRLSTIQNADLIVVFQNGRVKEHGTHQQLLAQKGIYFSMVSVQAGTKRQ
- protocol.details: Inhibition of ABCB1 in human A2780/ADR cells assessed as reduction in calcein AM efflux pre-incubated for 30 mins before calcein AM addition and measured for 60 mins by microplate reader analysis relative to control
outcome.measure: IC50 (µM)

| compound | result.units | IC50 |
| --- | --- | --- |
| COc1ccc(C2c3[nH]c4ccccc4c3CCN2C(=O)c2ccccc2)cc1 (stereo unspecified) | µM | 12 |
| O=C(c1ccccc1)N1CCc2c([nH]c3ccccc23)C1c1ccccc1F (stereo unspecified) | µM | 11.3 |
| COc1ccc(C(=O)N2CCc3c([nH]c4ccccc34)C2c2ccccc2)cc1 (stereo unspecified) | µM | 9.55 |
| O=C(c1ccccc1)N1CCc2c([nH]c3ccccc23)C1c1ccccc1 (stereo unspecified) | µM | 7.94 |

I = CCn1c2c(c3ccccc31)CCN(C(=O)c1ccccc1)C2c1ccccc1 (stereo unspecified)
II = O=C(c1ccccc1)N1CCc2c([nH]c3ccccc23)C1c1ccc(F)cc1 (stereo unspecified)
Lowest IC50? choose I or II Bench note: the answer is the label of the chosen record.
I
(I: 9.23 µM, II: 13.4 µM)

###

- system.under.test: Broad substrate specificity ATP-binding cassette transporter ABCG2 (Homo sapiens)
- Sequence (Q9UNQ0 whole entry): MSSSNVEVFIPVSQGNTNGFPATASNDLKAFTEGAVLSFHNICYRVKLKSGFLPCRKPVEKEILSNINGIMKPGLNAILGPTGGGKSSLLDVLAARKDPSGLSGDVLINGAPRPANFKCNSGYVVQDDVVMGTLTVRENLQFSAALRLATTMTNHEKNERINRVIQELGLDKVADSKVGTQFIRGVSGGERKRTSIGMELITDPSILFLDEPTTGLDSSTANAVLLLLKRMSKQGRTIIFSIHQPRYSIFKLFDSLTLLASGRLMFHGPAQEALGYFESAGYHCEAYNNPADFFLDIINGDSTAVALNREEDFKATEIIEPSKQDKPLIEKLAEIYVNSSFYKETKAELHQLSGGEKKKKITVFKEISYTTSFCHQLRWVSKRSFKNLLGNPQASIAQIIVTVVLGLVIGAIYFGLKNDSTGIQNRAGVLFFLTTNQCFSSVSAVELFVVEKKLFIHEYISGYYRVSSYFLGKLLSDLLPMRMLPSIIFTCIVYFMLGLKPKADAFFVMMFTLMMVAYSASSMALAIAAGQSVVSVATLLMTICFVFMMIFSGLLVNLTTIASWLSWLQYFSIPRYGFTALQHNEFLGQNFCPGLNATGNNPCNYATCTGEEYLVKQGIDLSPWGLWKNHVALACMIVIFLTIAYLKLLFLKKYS
- protocol.details: Inhibition of human ABCG2 expressed in MDCK2 cells assessed as reduction in Hoechst 33342 efflux pre-incubated for 30 mins before Hoechst 33342 addition and measured for 120 mins by microplate reader analysis
- Format: cell-based
- applied.conditions: read-out: IC50
pIC50: −log10 of the molar value.
outcome.measure: pIC50

Solved entries:
| compound | pIC50 |
| --- | --- |
| O=C(c1ccccc1)N1CCc2c([nH]c3ccccc23)C1c1ccc(C(F)(F)F)cc1 (stereo not drawn) | < 5.00 |
| O=C(c1ccccc1)N1CCc2c([nH]c3ccccc23)C1c1ccccc1Br (stereo not drawn) | < 5.00 |

Measured pIC50 for this entry CCn1c2c(c3ccccc31)CCN(C(=O)c1cccc(OC)c1)C2c1ccc(Cl)c(Cl)c1 (stereo not drawn) on Broad substrate specificity ATP-binding cassette transporter ABCG2 (Homo sapiens): < 5.00
